- Tested Target: potassium ion channel hERG (human Ether-á-go-go-Related Gene) (Homo sapiens)
- Sequence (Q12809 whole entry): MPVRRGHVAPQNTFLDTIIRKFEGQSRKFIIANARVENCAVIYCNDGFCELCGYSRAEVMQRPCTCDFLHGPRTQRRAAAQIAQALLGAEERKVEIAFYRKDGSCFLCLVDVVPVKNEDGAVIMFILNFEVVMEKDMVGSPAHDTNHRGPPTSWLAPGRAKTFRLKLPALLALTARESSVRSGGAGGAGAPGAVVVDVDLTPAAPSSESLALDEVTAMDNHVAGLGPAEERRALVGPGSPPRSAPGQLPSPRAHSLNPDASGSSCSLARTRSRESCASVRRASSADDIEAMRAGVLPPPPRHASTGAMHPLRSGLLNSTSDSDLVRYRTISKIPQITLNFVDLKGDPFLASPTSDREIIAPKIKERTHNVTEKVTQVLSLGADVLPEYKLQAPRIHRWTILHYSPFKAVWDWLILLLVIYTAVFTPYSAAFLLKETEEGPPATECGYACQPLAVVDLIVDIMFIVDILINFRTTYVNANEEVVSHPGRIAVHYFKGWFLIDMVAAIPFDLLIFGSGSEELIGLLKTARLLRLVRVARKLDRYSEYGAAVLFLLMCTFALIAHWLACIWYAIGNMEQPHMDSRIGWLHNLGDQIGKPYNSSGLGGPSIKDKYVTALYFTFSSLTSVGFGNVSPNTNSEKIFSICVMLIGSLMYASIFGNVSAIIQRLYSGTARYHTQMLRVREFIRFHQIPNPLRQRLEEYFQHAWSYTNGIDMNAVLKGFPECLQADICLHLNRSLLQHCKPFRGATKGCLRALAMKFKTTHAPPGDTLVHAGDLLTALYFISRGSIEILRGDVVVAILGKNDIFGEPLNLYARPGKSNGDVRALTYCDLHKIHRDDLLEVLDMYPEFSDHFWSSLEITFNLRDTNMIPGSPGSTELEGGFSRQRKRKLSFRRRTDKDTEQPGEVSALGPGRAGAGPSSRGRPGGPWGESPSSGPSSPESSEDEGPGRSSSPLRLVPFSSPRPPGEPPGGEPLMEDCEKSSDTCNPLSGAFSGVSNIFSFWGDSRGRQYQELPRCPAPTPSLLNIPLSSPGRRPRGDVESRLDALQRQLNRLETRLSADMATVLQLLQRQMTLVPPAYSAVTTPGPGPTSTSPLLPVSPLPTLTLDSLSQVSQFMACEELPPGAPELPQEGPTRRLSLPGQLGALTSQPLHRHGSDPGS
- Test Details: Assay 5 - hERG assay (SyncroPatch 384PE patch clamp, CHO cells)
- Experimental Setup: geometric mean; CHO cells over-expressing hERG; read-out: Assay 5 (hERG Hu CHO IF EPh CR-Syncro) GMean IC50
Quick list: IC50 per entry.

{"Compound": "CN1C(=O)CN(c2ccc(N[C@H]3CC[C@H](Nc4cnc(Cl)cn4)C3)nc2)C1=O [Example 26]", "IC50": "14.3 µM"}
{"Compound": "CNC(=O)c1cnc(N[C@H]2CC[C@H](Nc3ccc(-n4cccc(OC)c4=O)cn3)C2)cn1 (stereo in doubt) [Example 150]", "IC50": "> 40.1 µM"}
{"Compound": "Cn1ccc2nc(N[C@H]3CC[C@H](Nc4ccc(-n5ccccc5=O)cn4)C3)cnc21 [Example 7]", "IC50": "> 40 µM"}
{"Compound": "O=c1ccc(Cl)cn1-c1ccc(N[C@H]2CC[C@H](Nc3cnc(C4CC4)cn3)C2)nc1 [Example 109]", "IC50": "19.9 µM"}
{"Compound": "Cc1cnc(N[C@H]2CC[C@H](Nc3ccc(-n4c(=O)n(C)c5cccnc54)cn3)C2)cn1 [Example 42]", "IC50": "> 40 µM"}
{"Compound": "COc1ccnn(-c2ccc(N[C@H]3CC[C@H](Nc4cnc(C)cn4)C3)nc2)c1=O [Example 226]", "IC50": "> 40.1 µM"}
